# Tested on: STHdh 111/111 striatal cells
# method-summary: Cell viability after heat shock (CellTiter Glo)
# condition-label: Mus musculus, read-out: Cell Viability striatal cells 3h heat shocked
property-measured: viability at 10 µM (%)

>>> recorded_number("Cc1[nH]c2ccc(C(=O)NCCN3CCOCC3(C)C)cc2c1C")
18
>>> recorded_number("Cc1[nH]c2ccc(C(=O)NCCNC(C)(C)C)cc2c1C")
67
>>> recorded_number("Cc1[nH]c2ccc(C(=O)NCCN3CCN(C)CC3)cc2c1C")
103
>>> recorded_number("O=C(NCCN1CCCCC1)c1ccc2[nH]c3c(c2c1)CCC3")
103

* * *

# method-summary: Thermodynamic solubility
# Type: physicochemical
# condition-label: thermodynamic from solid
# maps each entry to its solubility thermodynamic
property-measured: solubility thermodynamic (mM)

>>> recorded_number("Cc1[nH]c2ccc(C(=O)NCCN(C(C)C)C(C)C)cc2c1C")
2.1
>>> recorded_number("CCc1c(C)[nH]c2ccc(C(=O)NCCN(CC)CC)cc12")
5.1

* * *

# method-summary: Oral bioavailability
# condition-label: mouse, in vivo, mice
property-measured: bioavailability (%)

>>> recorded_number("Cc1[nH]c2ccc(C(=O)NCCN(C(C)C)C(C)C)cc2c1C")
10

Recorded values, source patent EP4140481A1.
